# targetEntity: T1, cynomolgus TREM2-Fc (cynomolgus monkey, UniProt A0A2K5UY34 49-204)
# T1 construct: also called cyno TREM2; not shown: Fc part
# T1 sequence: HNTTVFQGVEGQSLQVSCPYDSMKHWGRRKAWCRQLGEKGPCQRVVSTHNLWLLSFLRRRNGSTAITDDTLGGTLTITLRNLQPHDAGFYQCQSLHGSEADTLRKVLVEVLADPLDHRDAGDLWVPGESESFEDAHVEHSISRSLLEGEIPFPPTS
# assayInfo: SPR (Biacore T200), 37 C; TREM2-Fc on protein A chip, soluble Fab
propertyName: Kd (nM)
Could you give me the number in nM? Just the number is fine.

Input hPara.09.v2 Fab (Fab, V domains shown, also called Para.09-H5/3.27H7-L6) VH: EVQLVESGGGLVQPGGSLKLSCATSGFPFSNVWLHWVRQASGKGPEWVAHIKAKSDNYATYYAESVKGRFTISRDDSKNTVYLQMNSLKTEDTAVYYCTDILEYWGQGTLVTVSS VL: DVVMTQSPLSLPVTPGEPASISCRSSRSLLTSKGITSLYWYLQKPGQSPQLLIYRMSNLASGIPDRFSGSGSGTDFTLKISRVEAEDVGVYYCAQFLVYPYTFGQGTKVEIK . Output Kd: 0.022

Source listed as patent US20220389097A1.
